# assay-overview: Half life in iv dosed rat
# Type: ADME, organism-based
# run-conditions: in vivo

chem-smiles	half-life
COC(=O)N[C@H](C(=O)N1C[C@@H](C)C[C@H]1c1ncc(-c2ccc(-c3cc4sc(-c5ccc6[nH]c([C@@H]7C[C@H](C)CN7C(=O)[C@@H](NC(=O)OC)C(C)C)nc6c5)cc4s3)cc2)[nH]1)C(C)C	210 min
COC(=O)N[C@H](C(=O)N1C[C@@H](C)C[C@H]1c1cc2ccc(-c3cc4sc(-c5ccc6[nH]c([C@@H]7C[C@H](C)CN7C(=O)[C@@H](NC(=O)OC)C(C)C)nc6c5)cc4s3)cc2[nH]1)C(C)C	276 min
COC(=O)N[C@H](C(=O)N1C[C@@H](C)C[C@H]1c1nc2cc(-c3cc4sc(-c5ccc6nc([C@@H]7C[C@H](C)CN7C(=O)[C@@H](NC(=O)OC)C(C)C)oc6c5)cc4s3)ccc2[nH]1)C(C)C	336 min

Data origin: ChEMBL document CHEMBL3393019
